Test: Microsomal stability assay, liver microsome half-life (monkey)
Assay type: in vitro ADME
Conditions: pH 7.4; monkey liver microsomes 0.5 mg/mL + NADPH, 1 μM compound, 37° C; read-out: Liver microsome + NADPH T½ (min) Monkey
reported property: half-life at 1 μM (min)

[
  {
    "molecule": "CC(C)(c1ccc(-c2ccc(N3CC(NS(C)(=O)=O)C3)nc2)cc1)c1cc(Cl)c(OCCCl)c(C#N)c1 [Compound A11]",
    "unit spec": "min",
    "half-life at 1 μM": 28
  },
  {
    "molecule": "CC(C)(c1ccc(-c2cnc(N3CC(NS(C)(=O)=O)C3)cn2)cc1)c1cc(Cl)c(OCCCl)c(C#N)c1 [Compound A37]",
    "unit spec": "min",
    "half-life at 1 μM": 32
  }
]

====

The compounds listed here are annotated with their half-life at 1 μM.
Assay: Microsomal stability assay, liver microsome half-life (dog)
Type: in vitro ADME
Details: pH 7.4; dog liver microsomes 0.5 mg/mL + NADPH, 1 μM compound, 37° C; read-out: Liver microsome + NADPH T½ (min) Dog
Method: Microsomal Stability Assay: Microsomal stability assay is a widely used in vitro model to characterize the metabolic conversion by phase I enzymes, such as cytochrome P450 (CYP) enzymes. […] Metabolic stability of testing compound can be evaluated using human, rat, mouse, or other animal liver or intestine microsomes to predict intrinsic clearance. […] All samples were analyzed on LC/MS/MS using an AB Sciex API 4000 instrument, coupled to a Shimadzu LC-20AD LC Pump system. […]

[
  {
    "compound": "CS(=O)(=O)Nc1cnc2cc(-c3ccc(N(CC(F)(F)F)c4cc(Cl)c(OCCCl)c(C#N)c4)cc3)ccc2n1",
    "result": "> 120 min"
  },
  {
    "compound": "[2H]C([2H])([2H])N(c1ccc(-c2ccc3nc(NS(C)(=O)=O)cnc3c2)cc1)c1cc(Cl)c(OC2CC2)c(C#N)c1",
    "result": "> 120 min"
  },
  {
    "compound": "CNC(=O)c1ccc(N2C(=S)N(c3ccc(C#N)c(C(F)(F)F)c3)C(=O)C2(C)C)cc1F [Enzalutamide, enzalutamide, reference compound]",
    "result": "> 120 min"
  },
  {
    "compound": "CS(=O)(=O)Nc1nc2ccc(-c3ccc(Oc4cc(Cl)c(OCCCl)c(C#N)c4)cc3)cc2cc1F",
    "result": "> 120 min"
  },
  {
    "compound": "CS(=O)(=O)Nc1cnc2cc(-c3ccc(N(CC(F)(F)F)c4cnc(OC5CC5)c(C#N)c4)cc3)ccc2n1",
    "result": "> 120 min"
  },
  {
    "compound": "CN(c1ccc(-c2ccc3nc(NS(C)(=O)=O)cnc3c2)cc1)c1cc(F)c(OC2CC2)c(C#N)c1",
    "result": "> 120 min"
  }
]

Next compound, half-life at 1 μM to be filled in.
Query: For CC(C)(c1ccc(-c2cnn(C34CC(NS(C)(=O)=O)(C3)C4)c2)cc1)c1cc(Cl)c(OCCCl)c(C#N)c1 , what is its reported half-life at 1 μM?
Reply: > 120 min

====

Biological target: androgen receptor (AR) (Homo sapiens, UniProt P10275, T878A)
Construct: endogenous in cells
Sequence (P10275 1-920 T878A): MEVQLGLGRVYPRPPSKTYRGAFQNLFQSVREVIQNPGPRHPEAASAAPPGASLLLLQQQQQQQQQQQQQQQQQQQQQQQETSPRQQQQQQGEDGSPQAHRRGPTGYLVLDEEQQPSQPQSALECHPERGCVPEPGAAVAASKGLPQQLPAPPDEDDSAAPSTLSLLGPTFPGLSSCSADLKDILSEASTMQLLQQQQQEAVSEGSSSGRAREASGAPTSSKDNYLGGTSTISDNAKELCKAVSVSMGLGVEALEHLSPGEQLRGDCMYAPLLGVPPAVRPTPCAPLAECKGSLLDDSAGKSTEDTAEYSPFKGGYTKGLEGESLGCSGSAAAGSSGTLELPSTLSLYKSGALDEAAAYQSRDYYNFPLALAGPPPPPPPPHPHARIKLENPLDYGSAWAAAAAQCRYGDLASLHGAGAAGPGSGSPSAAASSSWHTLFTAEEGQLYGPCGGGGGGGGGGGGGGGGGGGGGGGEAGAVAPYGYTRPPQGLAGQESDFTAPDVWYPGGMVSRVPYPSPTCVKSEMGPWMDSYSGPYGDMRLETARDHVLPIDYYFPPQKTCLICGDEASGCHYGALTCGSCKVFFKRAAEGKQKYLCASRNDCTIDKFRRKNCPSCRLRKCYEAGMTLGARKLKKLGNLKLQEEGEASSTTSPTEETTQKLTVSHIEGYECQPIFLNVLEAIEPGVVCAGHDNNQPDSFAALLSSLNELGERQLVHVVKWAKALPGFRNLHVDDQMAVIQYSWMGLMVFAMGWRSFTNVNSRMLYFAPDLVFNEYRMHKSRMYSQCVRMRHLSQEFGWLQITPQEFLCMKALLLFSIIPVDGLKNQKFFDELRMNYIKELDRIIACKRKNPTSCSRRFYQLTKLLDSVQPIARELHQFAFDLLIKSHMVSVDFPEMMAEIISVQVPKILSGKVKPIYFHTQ
Experiment: Androgen-induced PSA-luciferase assay, Luciferase Assay A (LNCaP transiently transfected with PSA (6.1 kb)-luciferase reporter)
Conditions: LNCaP cells, 1 h pretreatment, R1881 (1 nM) 24 h, read-out: PSA-Luc IC50 Range
Method: The PSA (6.1 kb)-luciferase reporter contains functional AREs (androgen response elements) to which AR binds in response to androgen to induce luciferase activity. […] After 24 h of incubation with R1881, the cells were harvested, and relative luciferase activities were determined (FIG. 1). […]
pIC50: −log10 of the molar value.
reported property: pIC50

[
  {
    "molecule": "CC(C)(c1ccc(CCN2CC(NS(C)(=O)=O)C2)cc1)c1cc(Cl)c(OCCCl)c(C#N)c1",
    "pIC50": "< 5.70"
  },
  {
    "molecule": "CS(=O)(=O)N[C@H]1C[C@H](n2cc(-c3ccc(Oc4cc(Cl)c(OCCCl)c(C#N)c4)cc3)cn2)C1",
    "pIC50": "< 5.70"
  },
  {
    "molecule": "CC(C)(C)N(c1ccc(-c2ccc3nc(NS(C)(=O)=O)cnc3c2)cc1)c1cc(Cl)c(OCCCl)c(C#N)c1",
    "pIC50": "5.70 to 6.30"
  }
]

Query: Quick check: pIC50 of CC(C)(c1ccc(OCc2ccnc(NS(C)(=O)=O)n2)cc1)c1cc(Cl)c(N2CCCC(F)(F)C2)c(C#N)c1 ?
Reply: 5.70 to 6.30

Query: May I ask what pIC50 has been recorded for CC(C)(c1ccc(N2CCOC3(CCN(S(C)(=O)=O)CC3)C2)cc1)c1cc(Cl)c(OCCCl)c(C#N)c1 ?
Reply: > 6.30
